assay: Pharmacokinetic characteristics study in mice (plasma, LC-MS/MS); type: in vivo; details: mouse, C57BL/6 male mice, intragastric vs intravenous administration
Measured Property: bioavailability (%)
Please give a number only; it is taken to be in %.

What measured bioavailability goes with Cc1cc(F)c(C(=O)Nc2cccc(-c3nnc4n3CCCC4)n2)cc1-n1cnc(C2CC2)c1 ?
156

---

Target: ASK1/MAP3K5 (Homo sapiens (Human), UniProt Q99683)
Sequence (Q99683 whole entry): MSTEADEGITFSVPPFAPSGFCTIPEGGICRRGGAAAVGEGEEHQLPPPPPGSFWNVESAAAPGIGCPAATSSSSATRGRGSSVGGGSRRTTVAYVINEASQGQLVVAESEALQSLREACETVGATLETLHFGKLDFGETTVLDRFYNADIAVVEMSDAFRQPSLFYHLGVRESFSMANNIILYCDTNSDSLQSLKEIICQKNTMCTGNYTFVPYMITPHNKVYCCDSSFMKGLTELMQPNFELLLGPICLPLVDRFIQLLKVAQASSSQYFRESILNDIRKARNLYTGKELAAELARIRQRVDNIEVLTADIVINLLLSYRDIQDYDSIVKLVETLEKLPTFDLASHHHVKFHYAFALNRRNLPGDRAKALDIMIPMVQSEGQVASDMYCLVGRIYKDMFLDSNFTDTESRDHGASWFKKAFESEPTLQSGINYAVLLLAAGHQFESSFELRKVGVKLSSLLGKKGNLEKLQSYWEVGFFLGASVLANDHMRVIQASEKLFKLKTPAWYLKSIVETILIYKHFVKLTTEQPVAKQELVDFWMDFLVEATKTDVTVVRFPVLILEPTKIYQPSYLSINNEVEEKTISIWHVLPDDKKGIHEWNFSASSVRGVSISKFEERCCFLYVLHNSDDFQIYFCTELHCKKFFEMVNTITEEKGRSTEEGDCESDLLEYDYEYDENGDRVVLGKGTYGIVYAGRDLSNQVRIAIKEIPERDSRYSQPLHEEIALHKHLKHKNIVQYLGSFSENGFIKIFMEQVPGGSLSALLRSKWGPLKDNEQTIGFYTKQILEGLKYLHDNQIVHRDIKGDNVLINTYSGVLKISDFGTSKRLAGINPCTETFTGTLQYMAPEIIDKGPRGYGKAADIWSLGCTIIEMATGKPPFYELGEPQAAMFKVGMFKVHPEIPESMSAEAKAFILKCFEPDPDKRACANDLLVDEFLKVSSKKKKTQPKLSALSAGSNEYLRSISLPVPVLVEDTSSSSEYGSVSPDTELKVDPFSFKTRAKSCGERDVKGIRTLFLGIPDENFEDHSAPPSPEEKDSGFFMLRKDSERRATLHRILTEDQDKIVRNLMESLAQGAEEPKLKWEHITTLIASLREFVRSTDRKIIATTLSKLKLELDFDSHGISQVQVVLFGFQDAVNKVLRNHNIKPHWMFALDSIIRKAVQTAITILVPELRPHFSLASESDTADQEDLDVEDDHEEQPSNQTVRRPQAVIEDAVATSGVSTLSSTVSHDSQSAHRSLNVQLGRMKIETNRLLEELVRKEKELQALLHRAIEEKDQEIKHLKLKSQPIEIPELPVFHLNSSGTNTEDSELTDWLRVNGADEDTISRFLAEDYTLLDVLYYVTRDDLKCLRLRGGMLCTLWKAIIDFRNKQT
Test: Enzyme activity: ASK1 kinase 33P-ATP filter-binding assay with MBP substrate
Assay type: biochemical
Details: ASK1 enzyme activity, class symbols; read-out: IC50 value
Experimental: Experimental Example 1: Enzyme Activity Primary reaction buffer solution: 20 mM Hepes (pH 7.5), 10 mM MgCl2, 1 mM EGTA, 0.02% Brij35, 0.02 mg/ml BSA, 0.1 mM Na3VO4, 2 mM DTT, 1% DMSO Treatment of the Compound: […] 9. The radioactivity remaining on the filter paper was determined, 10. The data for the kinase activity was expressed as the ratio of the kinase activity remaining in the test sample to the kinase activity in the vehicle (DMSO). […]
Measured Property: IC50

What measured IC50 goes with Cc1cc(F)c(C(=O)Nc2cccc(-c3nnc4n3CCCC4)n2)cc1-n1cc(C2CC2)nn1 [WX003] ?
> 100 nM

What measured IC50 goes with Cc1cc(F)c(C(=O)Nc2cccc(-c3nnc4n3CCCC4)n2)cc1-n1nnc(C2CC2)n1 [WX004] ?
> 100 nM

What measured IC50 goes with Cc1cc(F)c(C(=O)Nc2cccc(-c3nnc4n3CCC4)n2)cc1-n1cnc(C2CC2)c1 [WX001] ?
≤ 100 nM

What measured IC50 goes with Cc1cc(F)c(C(=O)Nc2cccc(-c3nnc4n3CCCC4)n2)cc1-n1cnc(C2CC2)c1 [WX002] ?
≤ 100 nM

What measured IC50 goes with Cc1cc(F)c(C(=O)Nc2cccc(-c3nnc4n3CCCC4)n2)cc1-n1cnc(C2CC2)n1 [WX005] ?
≤ 100 nM

---

biological target: ASK1/MAP3K5 (Homo sapiens (Human)); experiment: Enzyme activity: ASK1 kinase 33P-ATP filter-binding assay with MBP substrate; type: biochemical; conditions: recombinant human full length GST-tagged ASK1 20 nM, MBP 20 μM, 33P-ATP, 2 hours room temperature; read-out: IC50
pIC50: −log10 of the molar value.
# cutoff 8 applies to pIC50; >= gives Fulfilled, < gives Not fulfilled

Does the reported pIC50 for Cc1cc(F)c(C(=O)Nc2cccc(-c3nnc4n3CCCC4)n2)cc1-n1cc(C2CC2)nn1 fall at or above the 8 mark?
Not fulfilled

Does the reported pIC50 for Cc1cc(F)c(C(=O)Nc2cccc(-c3nnc4n3CCC4)n2)cc1-n1cnc(C2CC2)c1 fall at or above the 8 mark?
Fulfilled

Does the reported pIC50 for Cc1cc(F)c(C(=O)Nc2cccc(-c3nnc4n3CCCC4O)n2)cc1-n1cnc(C2CC2)c1 (stereo not drawn) fall at or above the 8 mark?
Fulfilled

Does the reported pIC50 for Cc1cc(F)c(C(=O)Nc2cccc(-c3nnc4n3CCCC4)n2)cc1-n1cnc(C2CC2)c1 fall at or above the 8 mark?
Fulfilled

Does the reported pIC50 for O=C(Nc1cccc(-c2nnc3n2CCCC3)n1)c1cc(-n2cnc(C3CC3)c2)c(O)cc1F fall at or above the 8 mark?
Fulfilled

Does the reported pIC50 for Cc1cc(F)c(C(=O)Nc2cccc(-c3nnc4n3CCCC4)n2)cc1-n1cnc(C2CC2)n1 fall at or above the 8 mark?
Not fulfilled

Does the reported pIC50 for O=C(Nc1cccc(-c2nnc3n2CCCC3)n1)c1cc(-n2cnc(C3CC3)c2)c(-c2cccnc2)cc1F fall at or above the 8 mark?
Not fulfilled

Does the reported pIC50 for Cc1cc(F)c(C(=O)Nc2cccc(-c3nnc4n3CCCC4)n2)cc1-n1nnc(C2CC2)n1 fall at or above the 8 mark?
Not fulfilled

---

target: ASK1/MAP3K5 (Homo sapiens (Human), UniProt Q99683); experiment: Enzyme activity: ASK1 kinase 33P-ATP filter-binding assay with MBP substrate; format: biochemical; details: recombinant human full length GST-tagged ASK1 20 nM, MBP 20 μM, 33P-ATP, 2 hours room temperature; read-out: IC50
Measured Property: IC50 (nM)
Please give a number only; it is taken to be in nM.

What measured IC50 goes with O=C(Nc1cccc(-c2nnc3n2CCCC3)n1)c1cc(-n2cnc(C3CC3)c2)c(OCCCF)cc1F ?
7.93

What measured IC50 goes with COCCOc1cc(F)c(C(=O)Nc2cccc(-c3nnc4n3CCCC4)n2)cc1-n1cnc(C2CC2)c1 ?
16.6

What measured IC50 goes with CN(C)c1cc(F)c(C(=O)Nc2cccc(-c3nnc4n3CCCC4)n2)cc1-n1cnc(C2CC2)c1 ?
10.7

What measured IC50 goes with O=C(Nc1cccc(-c2nnc3n2CCCC3)n1)c1cc(-n2cnc(C3CC3)c2)c(N2CCOCC2)cc1F ?
10.1

What measured IC50 goes with O=C(Nc1cccc(-c2nnc3n2CCCC3)n1)c1cc(-n2cnc(C3CC3)c2)c(OCC2COC2)cc1F ?
7.61

What measured IC50 goes with O=C(Nc1cccc(-c2nnc3n2CCCC3)n1)c1cc(-n2cnc(C3CC3)c2)c(OCCF)cc1F ?
7.04

What measured IC50 goes with CC1(COc2cc(F)c(C(=O)Nc3cccc(-c4nnc5n4CCCC5)n3)cc2-n2cnc(C3CC3)c2)COC1 ?
7.2

These measurements were taken from patent US11040968B2.
